Reported pIC50 values, MAPKAPK2 (Homo sapiens).
pIC50: −log10 of the molar value.

{"MOLECULE": "C[C@H](CO)NC[C@H]1CCN(c2ccc3c(c2)Cn2cc(-c4ccc(F)cc4)cc2-c2nccn2-3)C1 [Compound 355]", "PROPERTY LABEL": "pIC50", "TEST RESULT": "> 7.30"}
{"MOLECULE": "CNC[C@@H]1CN(c2ccc3c(c2)Cn2cc(-c4ccc(F)cc4)cc2-c2nccn2-3)C[C@H]1O [Compound 364]", "PROPERTY LABEL": "pIC50", "TEST RESULT": "> 7.30"}
{"MOLECULE": "CNCC1CN(c2ccc3c(n2)Cn2cc(-c4ccc(C#N)cc4)cc2-c2nccn2-3)C1 [Compound 295]", "PROPERTY LABEL": "pIC50", "TEST RESULT": "> 7.30"}
{"MOLECULE": "CN(C)CCC1CCN(c2ccc3c(c2)Cn2cc(-c4ccc(F)cc4)cc2-c2nccn2-3)C1 (stereo not shown) [Compound 488]", "PROPERTY LABEL": "pIC50", "TEST RESULT": "> 7.30"}
{"MOLECULE": "CN(C)C[C@@H]1CN(c2ccc3c(c2)Cn2cc(-c4ccc(C#N)cc4)cc2-c2nccn2-3)C[C@@H]1O [Compound 129]", "PROPERTY LABEL": "pIC50", "TEST RESULT": "> 7.30"}

Observed pIC50 on MAPKAPK2 (Homo sapiens), entry CN(C)C[C@@H]1CCN(c2ccc3c(c2)Cn2c(cc(-c4ccc(C#N)cc4)c2Cl)-c2nncn2-3)C1 [Compound 170] , equals 7.00 to 7.30

Observed pIC50 on MAPKAPK2 (Homo sapiens), entry Cc1cc(N2C[C@@H](CN(C)C)[C@H](O)C2)cc2c1-n1ccnc1-c1cc(-c3ccc(F)cc3)cn1C2 [Compound 512] , equals 6.00 to 6.30

----------
Target: MAPKAPK2 (Homo sapiens)
Experiment: MK2 Enzymatic Assay
Format: biochemical
Details: 0.5 nM MAPKAPK2, 3 μM ATP, 2 μM Ser/Thr4 peptide, 23° C., values given as concentration bins
IC50 overview

Reported IC50 for `Cc1nnc2n1-c1ccc(N3CC[C@H](N)C3)cc1Cn1cc(-c3ccc(C#N)cc3)cc1-2` was 50 to 100 nM

----------
Reported pIC50 values, MAPKAPK2 (Homo sapiens).
pIC50: −log10 of the molar value.

Here's what some known entries look like.
{"COMPOUND": "CN(C)C[C@H]1CN(c2ccc3c(c2)Cn2cc(-c4ccc(C#N)cc4)cc2-c2nncn2-3)C[C@H]1O (relative stereo) [Compound 75]", "pIC50": "> 7.30"}
{"COMPOUND": "CN(C)C[C@H]1CN(c2ccc3c(c2)Cn2cc(-c4ccc(C#N)cc4)cc2-c2nncn2-3)C[C@H]1O [Compound 81]", "pIC50": "> 7.30"}
{"COMPOUND": "CN(C)C[C@@H]1CN(c2ccc3c(n2)Cn2cc(-c4ccc(F)cc4)cc2-c2nccn2-3)C[C@H]1O", "pIC50": "> 7.30"}
{"COMPOUND": "CN(C)[C@@H]1CN(c2ccc3c(c2)Cn2cc(-c4ccc(C#N)cc4)cc2-c2nccn2-3)C[C@@H]1O", "pIC50": "> 7.30"}
{"COMPOUND": "N#Cc1ccc(-c2cc3n(c2)Cc2cc(N4CCC5(CNC5)C4)ncc2-n2cnnc2-3)cc1", "pIC50": "6.70 to 7.00"}
{"COMPOUND": "CN(C)C[C@H]1CCN(c2ccc3c(c2)Cn2cc(-c4ccc(F)cc4)cc2-c2nnnn2-3)C1", "pIC50": "7.00 to 7.30"}

Then there is this compound:
Reported pIC50 for N#Cc1ccc(-c2cc3n(c2)Cc2cc(N4CC[C@H]5NCC[C@@H]54)ccc2-n2ncnc2-3)cc1 (racemic) was > 7.30

----------
Target: MAPKAPK2 (Homo sapiens)
pIC50: −log10 of the molar value.
PROPERTY LABEL: pIC50

{"MOLECULE": "CN(C)[C@@H]1CN(c2ccc3c(c2)Cn2cc(-c4ccc(C#N)cc4)cc2-c2nccn2-3)C[C@H]1O", "TEST RESULT": "> 7.30"}
{"MOLECULE": "CN(C)[C@@H]1CN(c2ccc3c(c2)Cn2cc(-c4ccc(F)cc4)cc2-c2nccn2-3)C[C@H]1CO (relative stereo)", "TEST RESULT": "> 7.30"}
{"MOLECULE": "O=C(O)C1CCN(CC2CCN(c3ccc4c(c3)Cn3cc(-c5ccc(F)cc5)cc3-c3nccn3-4)C2)CC1 (stereo not drawn)", "TEST RESULT": "7.00 to 7.30"}
{"MOLECULE": "CN(C)[C@@H]1CCN(c2ccc3c(c2)Cn2cc(-c4ccc(C#N)cc4)cc2-c2ncc(CN)n2-3)C1", "TEST RESULT": "7.00 to 7.30"}
{"MOLECULE": "CN(C)C[C@H]1CN(c2ccc3c(c2)Cn2cc(-c4ccc(F)cc4)cc2-c2ncnn2-3)C[C@H]1F", "TEST RESULT": "> 7.30"}

Then there is this molecule:
Observed pIC50 on MAPKAPK2 (Homo sapiens), entry `CN(C)C[C@H]1CN(c2ccc3c(c2)Cn2cc(-c4ccc(F)cc4)cc2-c2nccn2-3)C[C@H]1O` , equals > 7.30

----------
Target: MAPKAPK2 (Homo sapiens, UniProt P49137)
Sequence (P49137 whole entry, species assumed): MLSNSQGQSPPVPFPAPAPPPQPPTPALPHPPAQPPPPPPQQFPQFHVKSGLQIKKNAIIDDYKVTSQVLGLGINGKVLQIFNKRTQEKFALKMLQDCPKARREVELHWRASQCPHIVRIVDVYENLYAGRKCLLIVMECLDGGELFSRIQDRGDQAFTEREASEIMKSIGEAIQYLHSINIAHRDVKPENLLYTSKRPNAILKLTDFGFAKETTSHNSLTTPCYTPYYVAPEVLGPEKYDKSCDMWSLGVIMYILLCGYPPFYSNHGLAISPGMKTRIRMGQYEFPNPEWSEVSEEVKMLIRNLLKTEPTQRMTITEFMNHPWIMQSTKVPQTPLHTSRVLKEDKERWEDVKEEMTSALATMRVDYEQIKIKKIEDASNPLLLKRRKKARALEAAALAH
Assay: MK2 Enzymatic Assay
Assay type: biochemical
Conditions: 0.5 nM MAPKAPK2, 3 μM ATP, 2 μM Ser/Thr4 peptide, 23° C., values given as concentration bins
PROPERTY LABEL: IC50

Here's what some known entries look like.
{"COMPOUND": "CN(C)C[C@H]1CN(c2ccc3c(c2)Cn2cc(-c4ccc(F)cc4)cc2-c2ncnn2-3)C[C@H]1O", "TEST RESULT": "100 to 200 nM"}
{"COMPOUND": "CN(C)C[C@@H]1CN(c2ccc3c(n2)Cn2cc(-c4ccc(C#N)cc4)cc2-c2nccn2-3)C[C@H]1O", "TEST RESULT": "< 50 nM"}
{"COMPOUND": "CNCC1CN(c2ccc3c(c2)Cn2cc(-c4ccc(C#N)cc4)cc2-c2ncnn2-3)C1", "TEST RESULT": "50 to 100 nM"}
{"COMPOUND": "N[C@H]1CCCN(c2ccc3c(c2)Cn2cc(-c4ccc(F)cc4)cc2-c2nnnn2-3)C1", "TEST RESULT": "50 to 100 nM"}
{"COMPOUND": "CC(C)N1CC2(CCN(c3ccc4c(c3)Cn3cc(-c5ccc(F)cc5)cc3-c3nccn3-4)C2)C1", "TEST RESULT": "< 50 nM"}
{"COMPOUND": "Fc1ccc(-c2cc3n(c2)Cc2cc(N4CCC5(CNC5)C4)ccc2-n2ccnc2-3)cc1", "TEST RESULT": "< 50 nM"}

Reported IC50 for `N#Cc1ccc(-c2cc3n(c2)Cc2cc(N4CCC5(CNC5)C4)ccc2-n2ncnc2-3)cc1` was < 50 nM

Reported IC50 for `Fc1ccc(-c2cc3n(c2)Cc2cc(N4CCC5(CC4)CNC5)ccc2-n2nnnc2-3)cc1` was < 50 nM

Reported IC50 for `CC(C)[C@H](CO)NC[C@H]1CCN(c2ccc3c(c2)Cn2cc(-c4ccc(F)cc4)cc2-c2nccn2-3)C1` was < 50 nM

Reported IC50 for O[C@@H]1CN(c2ccc3c(c2)Cn2cc(-c4ccc(F)cc4)cc2-c2nccn2-3)C[C@H]1CN1CCCC1 [Compound 471] was < 50 nM

Reported IC50 for `CN(C)C[C@@H]1CCN(c2cc3c(cn2)-n2cnnc2-c2cc(-c4ccc(F)cc4)cn2C3)C1` was 100 to 200 nM

Reported IC50 for `C[C@H]1c2cc(N3C[C@@H](CN(C)C)[C@H](O)C3)ccc2-n2ccnc2-c2cc(-c3ccc(F)cc3)cn21` was < 50 nM

Reported IC50 for OC1CN(c2ccc3c(c2)Cn2cc(-c4ccc(F)cc4)cc2-c2nccn2-3)CC1CN1CCC1 (single isomer, unassigned) was < 50 nM
